# Tested on: green foxtail (Setaria viridis, SETVI)
# PROCEDURE_TEXT: Post-emerge greenhouse herbicide test, phytotoxicity rating
# Type: in vivo
# CONDITION_SUMMARY: 500 g al/ha, 14 days after application
MEASURE_NAME: SETVI phytotoxicity rating (0-100)
Keep the answer to the number alone.

The following compounds have reported results that may help.
[
  {
    "COMPOUND": "CCN1CC(=O)N(c2cc(Oc3ncccn3)c(Cl)cc2F)C1=O",
    "TARGET_SYSTEM": "green foxtail (Setaria viridis, SETVI)",
    "SETVI phytotoxicity rating (0-100)": 30
  },
  {
    "COMPOUND": "O=C1C2CCCCN2C(=O)N1c1cc(Oc2ncccc2C(F)(F)F)c(Cl)cc1F (centres unmarked)",
    "TARGET_SYSTEM": "green foxtail (Setaria viridis, SETVI)",
    "SETVI phytotoxicity rating (0-100)": 10
  },
  {
    "COMPOUND": "N#Cc1ccccc1Oc1cc(-n2c(=O)n3n(c2=S)CCCC3)c(F)cc1Cl",
    "TARGET_SYSTEM": "green foxtail (Setaria viridis, SETVI)",
    "SETVI phytotoxicity rating (0-100)": 0
  }
]

Item Cn1nc(-c2cc(Oc3ncccc3[N+](=O)[O-])c(Cl)cc2F)c(Cl)c1C(F)(F)F has what recorded SETVI phytotoxicity rating (0-100)? 100

====

# Tested on: Johnsongrass (Sorghum halepense, SORHA)
# PROCEDURE_TEXT: Pre-emerge greenhouse herbicide test, phytotoxicity rating
# Format: in vivo
# CONDITION_SUMMARY: Sorghum halepense, pre-emergence, 336 h, Rate 500 g al/ha, 14 days after application, rating scale 0-100
MEASURE_NAME: pest or weed control at 500 g/ha (%)
Hi! Could you send only the number? It should be in %, unit omitted.

[
  {
    "MOL": "Nn1c(C(F)(F)F)cc(=O)n(-c2cc(Oc3ncccn3)c(Cl)cc2F)c1=O",
    "ENDPOINT_UNIT": "%",
    "READOUT_VALUE": 100
  },
  {
    "MOL": "Nn1c(C(F)(F)F)cc(=O)n(-c2cc(Oc3ccc(Cl)cn3)c(Cl)cc2F)c1=O",
    "ENDPOINT_UNIT": "%",
    "READOUT_VALUE": 99
  },
  {
    "MOL": "Nn1c(C(F)(F)F)cc(=O)n(-c2cc(Oc3cccc(Cl)n3)c(Cl)cc2F)c1=O",
    "ENDPOINT_UNIT": "%",
    "READOUT_VALUE": 100
  }
]

Below: the item to evaluate.
State its pest or weed control at 500 g/ha on Johnsongrass (Sorghum halepense, SORHA): Nn1c(C(F)(F)F)cc(=O)n(-c2cc(Oc3cc(C(F)(F)F)ccn3)c(Cl)cc2F)c1=O 99

====

Quick reference: RICE crop damage rating (0-100) of the listed items.
# Tested on: upland rice (Oryza sp., var.Tebonnet, RICE)
# PROCEDURE_TEXT: Post-emerge greenhouse test, crop damage rating
# Assay type: in vivo
# CONDITION_SUMMARY: 500 g al/ha, 14 days after application

[
  {
    "COMPOUND": "N#Cc1cc([N+](=O)[O-])ccc1Oc1cc(-n2c(=O)n3n(c2=S)CCCC3)c(F)cc1Cl [Compound 8-12]",
    "MEASURE_NAME": "RICE crop damage rating (0-100)",
    "READOUT_VALUE": 30
  },
  {
    "COMPOUND": "CCN1CC(=O)N(c2cc(Oc3ncccc3C(F)(F)F)c(Cl)cc2F)C1=O [Compound 8-1]",
    "MEASURE_NAME": "RICE crop damage rating (0-100)",
    "READOUT_VALUE": 0
  },
  {
    "COMPOUND": "O=c1n(CCCF)nnn1-c1cc(Oc2ncccc2[N+](=O)[O-])c(Cl)cc1Cl [Compound 6-3]",
    "MEASURE_NAME": "RICE crop damage rating (0-100)",
    "READOUT_VALUE": 40
  }
]

Then this compound:
What measured RICE crop damage rating (0-100) goes with Cc1nn(-c2cc(Oc3ncccn3)c(Cl)cc2F)c(=O)n1C(F)F [Compound 3-1] ? 100

====

# System: sicklepod (Cassia obtusifolia, CASOB)
# PROCEDURE_TEXT: Pre-emerge greenhouse herbicide test, phytotoxicity rating
# Type: in vivo
# CONDITION_SUMMARY: Senna obtusifolia, pre-emergence, 336 h, Rate 500 g al/ha, 14 days after application, rating scale 0-100
Binary call on pest or weed control at 500 g/ha: TRUE from 80% upward, FALSE beneath that.

Given the entry Nn1c(C(F)(F)F)cc(=O)n(-c2cc(Oc3ccc(Cl)cn3)c(Cl)cc2F)c1=O [Compound 9-3] , answer whether its pest or weed control at 500 g/ha meets or surpasses 80%. FALSE

Another compound to check: N#Cc1ccc(Oc2cc(-n3c(=O)cc(C(F)(F)F)n(N)c3=O)c(F)cc2Cl)nc1 [Compound 9-10] TRUE

How about this compound: O=c1n(-c2cc(Oc3ncccn3)c(Cl)cc2F)c(=S)n2n1CCCC2 [Compound 8-29] TRUE

Next: Nn1c(C(F)(F)F)cc(=S)n(-c2cc(Oc3ccc(Cl)cn3)c(Cl)cc2F)c1=O [Compound 9-28] FALSE

And for Nn1c(C(F)(F)F)cc(=O)n(-c2cc(Oc3ncccc3[N+](=O)[O-])c(Cl)cc2F)c1=O [Compound 9-1] ? TRUE

Consider next the compound Nn1c(C(F)(F)F)cc(=O)n(-c2cc(Oc3nccc(Cl)n3)c(Cl)cc2F)c1=O [Compound 9-17] in the same way. FALSE

====

# System: ivyleaf morningglory (Ipomoea hederacea, IPOHE)
# PROCEDURE_TEXT: Pre-emerge greenhouse herbicide test, phytotoxicity rating
# Format: in vivo
# CONDITION_SUMMARY: Ipomoea, pre-emergence, 336 h, Rate 125 g al/ha, 14 days after application, rating scale 0-100
# Description: A standard greenhouse herbicide activity screening system was used to evaluate the herbicidal efficacy and crop safety of these test compounds. […] At 14 days after application of the test materials, phytotoxicity ratings were recorded. […]
Let's look at some compounds and their measured pest or weed control at 125 g/ha.
Reply with just the number (in %).

Some compounds with recorded pest or weed control at 125 g/ha:
[
  {
    "COMPOUND": "Nn1c(C(F)(F)F)cc(=O)n(-c2cc(Oc3nccc(Cl)n3)c(Cl)cc2F)c1=O [Compound 9-17]",
    "ENDPOINT_UNIT": "%",
    "READOUT_VALUE": 20
  },
  {
    "COMPOUND": "Nn1c(C(F)(F)F)cc(=O)n(-c2cc(Oc3ccccc3C(F)(F)F)c(Cl)cc2F)c1=O [Compound 9-24]",
    "ENDPOINT_UNIT": "%",
    "READOUT_VALUE": 30
  },
  {
    "COMPOUND": "N#Cc1ccc(Oc2cc(-n3c(=O)cc(C(F)(F)F)n(N)c3=O)c(F)cc2Cl)nc1 [Compound 9-10]",
    "ENDPOINT_UNIT": "%",
    "READOUT_VALUE": 100
  },
  {
    "COMPOUND": "N#Cc1cccnc1Oc1cc(-n2c(=O)cc(C(F)(F)F)n(N)c2=O)c(F)cc1Cl [Compound 9-9]",
    "ENDPOINT_UNIT": "%",
    "READOUT_VALUE": 100
  },
  {
    "COMPOUND": "Cc1nsc(Oc2cc(-n3c(=O)cc(C(F)(F)F)n(N)c3=O)c(F)cc2Cl)c1[N+](=O)[O-] [Compound 9-14]",
    "ENDPOINT_UNIT": "%",
    "READOUT_VALUE": 100
  }
]

Which pest or weed control at 125 g/ha is reported for this compound? Nn1c(C(F)(F)F)cc(=O)n(-c2cc(Oc3ccc([N+](=O)[O-])cn3)c(Cl)cc2F)c1=O [Compound 9-11] 10

And the next one, Nn1c(C(F)(F)F)cc(=O)n(-c2cc(Oc3ccc(Cl)cn3)c(Cl)cc2F)c1=O [Compound 9-3] ? 40

====

# Tested on: upland rice (Oryza sp., var.Tebonnet, RICE)
# PROCEDURE_TEXT: Pre-emerge greenhouse test, crop damage rating
# Format: in vivo
# CONDITION_SUMMARY: 125 g ai/ha, 14 days after application, rating scale 0-100
List of crop damage rating RICE values.
Keep the answer to the number alone.

The following compounds have reported results that may help.
[
  {
    "MOL": "Cn1c(C(F)(F)F)nc(-c2cc(Oc3ncccc3[N+](=O)[O-])c(Cl)cc2F)c1Cl",
    "TARGET_SYSTEM": "upland rice (Oryza sp., var.Tebonnet, RICE)",
    "crop damage rating RICE": 0
  },
  {
    "MOL": "O=c1n(-c2cc(Oc3ccccc3)c(Cl)cc2F)c(=S)n2n1CCCC2",
    "TARGET_SYSTEM": "upland rice (Oryza sp., var.Tebonnet, RICE)",
    "crop damage rating RICE": 0
  },
  {
    "MOL": "Cn1c(C(F)(F)F)nc(-c2cc(Oc3ncccn3)c(Cl)cc2F)c1Cl",
    "TARGET_SYSTEM": "upland rice (Oryza sp., var.Tebonnet, RICE)",
    "crop damage rating RICE": 30
  },
  {
    "MOL": "O=c1cc2n(c(=O)n1-c1cc(Oc3ncccn3)c(Cl)cc1F)CCC2",
    "TARGET_SYSTEM": "upland rice (Oryza sp., var.Tebonnet, RICE)",
    "crop damage rating RICE": 60
  },
  {
    "MOL": "O=c1n(CCCF)nnn1-c1cc(Oc2ccc(C(F)(F)F)cn2)c(Cl)cc1Cl",
    "TARGET_SYSTEM": "upland rice (Oryza sp., var.Tebonnet, RICE)",
    "crop damage rating RICE": 0
  }
]

Reported crop damage rating RICE, compound Cn1nc(-c2cc(Oc3ncccc3C(F)(F)F)c(Cl)cc2F)c(Cl)c1C(F)(F)F : ____ 30

Repeat for the following compound: Cn1nc(-c2cc(Oc3ncccn3)c(Cl)cc2F)c(Cl)c1C(F)(F)F 70

Another compound: Nc1ccc(Oc2cc(-n3c(=O)n4n(c3=S)CCCC4)c(F)cc2Cl)c(C(F)(F)F)c1 0

The measured values listed here are drawn from patent US6479435B1.
